# Tested on: THREE FUNGI
# test name: MIC test against three fungi in Mycophile Broth, pH 5.0, read after 8 days (Table VII)
# Format: cell-based
# test settings: 192 h, Gloeophyllum trabeum, serial dilutions from 50 ppm, read after 8 days of incubation, read-out: MIC GTRA
Can you tell me MIC for the items I'm about to list?
Numbers only, in µg/mL.

CC(C)(C)OC(=O)N[C@@H](CSCc1ccccc1)C(=O)OCC#CI [Compound 4]; 6.2

State the recorded MIC for every item in the following list.
1. O=C(CNC(=O)c1ccccc1)OCC#CI [Compound 29, N-benzoylglycine iodopropargyl ester]
2. CC(C)(C)OC(=O)NCC(=O)OCC#CI [Compound 1]

Ans.
3.2
1.6

State the recorded MIC for every item in the following list.
1. C[C@@H](NC(=O)OC(C)(C)C)C(=O)OCC#CI [Compound 23]
2. C[C@H](NC(=O)OC(C)(C)C)C(=O)N[C@@H](CSCc1ccccc1)C(=O)OCC#CI [Compound 15]

Ans.
1: 1.6; 2: 50

State the recorded MIC for every item in the following list.
1. C[C@H](NC(=O)OC(C)(C)C)C(=O)N[C@H](C(=O)OCC#CI)[C@@H](C)OCc1ccccc1 [Compound 16]
2. C[C@H](NC(=O)[C@@H](C)NC(=O)OC(C)(C)C)C(=O)OCC#CI [Compound 26]
3. C[C@@H](OCc1ccccc1)[C@H](NC(=O)OC(C)(C)C)C(=O)OCC#CI [Compound 5]
4. C[C@H](NC(=O)OC(C)(C)C)C(=O)NCC(=O)OCC#CI [Compound 12]
5. C[C@H](NC(=O)CNC(=O)OC(C)(C)C)C(=O)OCC#CI [Compound 27]
6. CC(C)(C)OC(=O)N[C@@H](COCc1ccccc1)C(=O)OCC#CI [Compound 3]
7. O=C(CN1C(=O)c2ccccc2C1=O)OCC#CI [Compound 30, N-phthaloylglycine iodopropargyl ester]
8. C[C@@H](NC(=O)OC(C)(C)C)C(=O)N[C@H](C)C(=O)OCC#CI [Compound 25]

Ans.
[25, 6.2, 6.2, 6.2, 6.2, 3.2, 6.2, 6.2]

State the recorded MIC for every item in the following list.
1. C[C@H](NC(=O)OC(C)(C)C)C(=O)N[C@@H](COCc1ccccc1)C(=O)OCC#CI [Compound 14]
2. C[C@H](NC(=O)OC(C)(C)C)C(=O)N[C@@H](C)C(=O)OCC#CI [Compound 13]
3. O=C(CNC(=O)OCc1ccccc1)OCC#CI [Compound 31]
4. CCCCCCCC(=O)NCC(=O)OCC#CI [Compound 34, N-octanoylglycine iodopropargyl ester]
5. O=CNCC(=O)OCC#CI [Compound 32, N-formylglycine iodopropargyl ester]
6. C[C@H](NC(=O)OC(C)(C)C)C(=O)OCC#CI [Compound 2]
7. C/C=C/C=C/C(=O)NCC(=O)OCC#CI [Compound 35, N-sorbylglycine iodopropargyl ester]

Ans.
1: 12.5; 2: 6.2; 3: 0.8; 4: 3.2; 5: 3.2; 6: 1.6; 7: 0.4

Qu. What value of measured MIC is listed for CC(=O)NCC(=O)OCC#CI [Compound 28, N-acetylglycine iodopropargyl ester] ?
Ans. 6.2

---

# System: Aspergillus niger (ANIG)
# test name: Minimum inhibitory concentration (MIC), broth two-fold serial dilution test
# Assay type: cell-based
# test settings: Aspergillus niger, read-out: MIC (F) ANIG, M9G (minimal salts media with glucose); Table IIIa
Structures can show the parent of a compound that is named as a salt.
endpoint: MIC (µg/mL)
Give bare numbers, in µg/mL.

N[C@@H](CSCc1ccccc1)C(=O)OCC#CI [Compound 10, trifluoroacetate]; 3

Qu. What value of measured MIC is listed for C[C@@H](OCc1ccccc1)[C@H](N)C(=O)OCC#CI [Compound 11, trifluoroacetate] ?
Ans. 6.3

---

# Test system: THREE FUNGI
# test name: MIC test against three fungi in Mycophile Broth, pH 5.0, read after 8 days (Table VII)
# Format: cell-based
# test settings: Aureobasidium pullulans, 192 h, pH 5, read-out: MIC APUL, Aureobasidium pullulans, serial dilutions from 50 ppm, read after 8 days of incubation
Where a name gives a salt, the structure may show the parent alone.
Can you tell me MIC for the items I'm about to list?
Numbers only, in µg/mL.

C[C@H](N)C(=O)N[C@@H](CSCc1ccccc1)C(=O)OCC#CI [Compound 20, trifluoroacetate]; 50
N[C@@H](CSCc1ccccc1)C(=O)OCC#CI [Compound 10, trifluoroacetate]; 12.5

// moving on: another record for MIC
Qu. What value of measured MIC is listed for C[C@H](N)C(=O)NCC(=O)OCC#CI [Compound 17, trifluoroacetate] ?
Ans. 50

---

Can you tell me MIC for the items I'm about to list?
# System: THREE FUNGI
# test name: MIC test against three fungi in Mycophile Broth, pH 5.0, read after 8 days (Table VII)
# Assay type: cell-based
# test settings: Aureobasidium pullulans, 192 h, pH 5, read-out: MIC APUL, Aureobasidium pullulans, serial dilutions from 50 ppm, read after 8 days of incubation
Structures can show the parent of a compound that is named as a salt.
Answers are plain numbers, in mg/L.

N[C@@H](COCc1ccccc1)C(=O)OCC#CI [Compound 9, trifluoroacetate]; 50
NCC(=O)OCC#CI [Compound 7, trifluoroacetate]; 50

State the recorded MIC for every item in the following list.
1. C[C@@H](N)C(=O)OCC#CI [Compound 24, trifluoroacetate]
2. C[C@H](N)C(=O)OCC#CI [Compound 8, trifluoroacetate]
3. C[C@@H](OCc1ccccc1)[C@H](N)C(=O)OCC#CI [Compound 11, trifluoroacetate]

Ans.
1. 25
2. 25
3. 50

State the recorded MIC for every item in the following list.
1. C[C@H](N)C(=O)N[C@@H](COCc1ccccc1)C(=O)OCC#CI [Compound 19, trifluoroacetate]
2. C[C@H](N)C(=O)N[C@@H](C)C(=O)OCC#CI [Compound 18, trifluoroacetate]

Ans.
50
50

---

# System: THREE FUNGI
# test name: MIC test against three fungi in Mycophile Broth, pH 5.0, read after 8 days (Table VII)
# Assay type: cell-based
# test settings: 192 h, Aspergillus niger, serial dilutions from 50 ppm, read after 8 days of incubation, read-out: MIC ANIG
endpoint: MIC (µg/mL)
Give bare numbers, in µg/mL.

Example compounds with recorded MIC:
CCCCCCCC(=O)NCC(=O)OCC#CI; 1.6
O=CNCC(=O)OCC#CI; 12.5
O=C(CNC(=O)OCc1ccccc1)OCC#CI; 1.6
C[C@H](NC(=O)CNC(=O)OC(C)(C)C)C(=O)OCC#CI; 25
CC(C)(C)OC(=O)NCC(=O)OCC#CI; 3.2
C[C@H](NC(=O)[C@@H](C)NC(=O)OC(C)(C)C)C(=O)OCC#CI; 25
C/C=C/C=C/C(=O)NCC(=O)OCC#CI; 1.6
C[C@H](NC(=O)OC(C)(C)C)C(=O)N[C@@H](COCc1ccccc1)C(=O)OCC#CI; 50
CC(=O)NCC(=O)OCC#CI; 12.5
O=C(CN1C(=O)c2ccccc2C1=O)OCC#CI; 12.5

State the recorded MIC for every item in the following list.
1. C[C@H](NC(=O)OC(C)(C)C)C(=O)N[C@@H](C)C(=O)OCC#CI
2. CC(C)(C)OC(=O)N[C@@H](COCc1ccccc1)C(=O)OCC#CI

Ans.
25
25

State the recorded MIC for every item in the following list.
1. C[C@H](NC(=O)OC(C)(C)C)C(=O)NCC(=O)OCC#CI
2. C[C@H](NC(=O)OC(C)(C)C)C(=O)OCC#CI

Ans.
25
3.2

Qu. What value of measured MIC is listed for C[C@@H](NC(=O)OC(C)(C)C)C(=O)OCC#CI ?
Ans. 6.2

---

# Tested on: 8 FUNGI
# test name: Microbicides secondary test against 8 fungi on Mycophile Agar at pH 5.0 (Table VI)
# Assay type: cell-based
# Set-up: key: 1= no growth; 0= growth of the indicated fungi at dose indicated in ppm
# test settings: Chaetomium globosum, 2.5 PPM
Can you tell me CGLO growth for the items I'm about to list?
Numbers only.

Example molecules with recorded CGLO growth:
CCCCCCCC(=O)NCC(=O)OCC#CI [Compound 34, N-octanoylglycine iodopropargyl ester]; 0
O=CNCC(=O)OCC#CI [Compound 32, N-formylglycine iodopropargyl ester]; 0
CC(=O)NCC(=O)OCC#CI [Compound 28, N-acetylglycine iodopropargyl ester]; 0
C/C=C/C=C/C(=O)NCC(=O)OCC#CI [Compound 35, N-sorbylglycine iodopropargyl ester]; 1
O=C(CN1C(=O)c2ccccc2C1=O)OCC#CI [Compound 30, N-phthaloylglycine iodopropargyl ester]; 1
O=C(CNC(=O)OCc1ccccc1)OCC#CI [Compound 31]; 1

// moving on: another record for CGLO growth
Qu. What value of measured CGLO growth is listed for O=C(CNC(=O)c1ccccc1)OCC#CI [Compound 29, N-benzoylglycine iodopropargyl ester] ?
Ans. 0
